studySystem: Grb2 SH2 (UniProt P62993)
Sequence (P62993 whole entry, looked up, the tested form may be a part): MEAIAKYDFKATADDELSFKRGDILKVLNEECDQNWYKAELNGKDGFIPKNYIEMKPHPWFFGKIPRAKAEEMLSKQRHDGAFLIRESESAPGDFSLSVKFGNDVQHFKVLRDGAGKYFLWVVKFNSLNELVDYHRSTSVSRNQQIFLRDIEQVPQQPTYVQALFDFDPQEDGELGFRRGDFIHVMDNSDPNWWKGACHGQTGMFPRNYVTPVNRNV
experimentNotes: SH2 binding enrichment of the phosphorylated peptide, bacterial display (enrichment ratio); higher = better substrate or ligand; peptides without Tyr show the background;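 further: peptide library displayed on the E. coli surface as eCPX fusions, selected cells deep-sequenced, score is each peptide's frequency after selection divided by its frequency in the input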
resultType: SH2 binding enrichment
When you answer, write just the number.

Worked cases, answers included:
sequenceChain	studySystem	SH2 binding enrichment
SFGMVYEGNAR [INSR_Y1038]	Grb2 SH2 (UniProt P62993)	0.879
DPEGAYTTRGG [EPHA3_Y779_A777G]	Grb2 SH2 (UniProt P62993)	0.979
EHTTLYSNNST [KANSL1_Y223]	Grb2 SH2 (UniProt P62993)	0.846
TAPFNYSFIFK [RAB14_Y8_YF]	Grb2 SH2 (UniProt P62993)	0.581
DVCKNYAEAKD [ALB_Y343]	Grb2 SH2 (UniProt P62993)	0.739

Asked: I am curious: what SH2 binding enrichment value has been reported for EASEQYLTKAS [NRCAM_Y739] ?
Given back: 0.901

Asked: Report SH2 binding enrichment for RNAAEYPLSSG [ABL1_Y139_L140P] please.
Given back: 0.865
